experiment: Half life (t 1/2) during hydrolysis caused by human serum; type: ADME, organism-based
Recorded half-life for the following compounds

{"compound": "[N-]=[N+]=N[C@H]1C[C@H](n2ccc(=O)[nH]c2=O)O[C@@H]1COP(=O)(OC[C@H]1O[C@@H](n2ccc(=O)[nH]c2=O)C[C@@H]1N=[N+]=[N-])Oc1ccccc1C(=O)Oc1ccccc1", "half-life (h)": 4}
{"compound": "O=C(OC1O[C@H](CO)[C@@H](O)[C@H](O)[C@H]1O)c1ccccc1OP(=O)(OC[C@@H]1CC[C@H](n2ccc(=O)[nH]c2=O)O1)OC[C@@H]1CC[C@H](n2ccc(=O)[nH]c2=O)O1 (some centres undefined)", "half-life (h)": 48}
{"compound": "[N-]=[N+]=N[C@H]1C[C@H](n2ccc(=O)[nH]c2=O)O[C@@H]1COP(=O)(OC[C@H]1O[C@@H](n2ccc(=O)[nH]c2=O)C[C@@H]1N=[N+]=[N-])Oc1ccccc1", "half-life (h)": 17}
{"compound": "COC(=O)c1ccccc1OP(=O)(OC[C@H]1O[C@@H](n2ccc(=O)[nH]c2=O)C[C@@H]1N=[N+]=[N-])OC[C@H]1O[C@@H](n2ccc(=O)[nH]c2=O)C[C@@H]1N=[N+]=[N-]", "half-life (h)": 4}

* * *

assay: Half life (t 1/2) during hydrolysis catalyzed by brain extract; type: ADME, tissue-based
Collected half-life values appear next to each entry.

{"compound": "COC(=O)c1ccccc1OP(=O)(OC[C@H]1O[C@@H](n2ccc(=O)[nH]c2=O)C[C@@H]1N=[N+]=[N-])OC[C@H]1O[C@@H](n2ccc(=O)[nH]c2=O)C[C@@H]1N=[N+]=[N-]", "unit descriptor": "min", "comparison operator": "=", "half-life": 240}
{"compound": "[N-]=[N+]=N[C@H]1C[C@H](n2ccc(=O)[nH]c2=O)O[C@@H]1COP(=O)(OC[C@H]1O[C@@H](n2ccc(=O)[nH]c2=O)C[C@@H]1N=[N+]=[N-])Oc1ccccc1C(=O)Oc1ccccc1", "unit descriptor": "min", "comparison operator": "=", "half-life": 300}
{"compound": "[N-]=[N+]=N[C@H]1C[C@H](n2ccc(=O)[nH]c2=O)O[C@@H]1COP(=O)(OC[C@H]1O[C@@H](n2ccc(=O)[nH]c2=O)C[C@@H]1N=[N+]=[N-])Oc1ccccc1", "unit descriptor": "min", "comparison operator": "=", "half-life": 1020}
{"compound": "O=C(OC1O[C@H](CO)[C@@H](O)[C@H](O)[C@H]1O)c1ccccc1OP(=O)(OC[C@@H]1CC[C@H](n2ccc(=O)[nH]c2=O)O1)OC[C@@H]1CC[C@H](n2ccc(=O)[nH]c2=O)O1 (some centres undefined)", "unit descriptor": "min", "comparison operator": ">", "half-life": 4320}

* * *

experiment: Half life (t 1/2) during pig liver esterase-catalyzed hydrolysis; assay type: ADME, organism-based, Sus scrofa

{"compound": "[N-]=[N+]=N[C@H]1C[C@H](n2ccc(=O)[nH]c2=O)O[C@@H]1COP(=O)(OC[C@H]1O[C@@H](n2ccc(=O)[nH]c2=O)C[C@@H]1N=[N+]=[N-])Oc1ccccc1", "half-life": "1020 min"}
{"compound": "[N-]=[N+]=N[C@H]1C[C@H](n2ccc(=O)[nH]c2=O)O[C@@H]1COP(=O)(OC[C@H]1O[C@@H](n2ccc(=O)[nH]c2=O)C[C@@H]1N=[N+]=[N-])Oc1ccccc1C(=O)Oc1ccccc1", "half-life": "60 min"}
{"compound": "O=C(OC1O[C@H](CO)[C@@H](O)[C@H](O)[C@H]1O)c1ccccc1OP(=O)(OC[C@@H]1CC[C@H](n2ccc(=O)[nH]c2=O)O1)OC[C@@H]1CC[C@H](n2ccc(=O)[nH]c2=O)O1 (some centres undefined)", "half-life": "> 2880 min"}
{"compound": "COC(=O)c1ccccc1OP(=O)(OC[C@H]1O[C@@H](n2ccc(=O)[nH]c2=O)C[C@@H]1N=[N+]=[N-])OC[C@H]1O[C@@H](n2ccc(=O)[nH]c2=O)C[C@@H]1N=[N+]=[N-]", "half-life": "1200 min"}

* * *

assay: Half life (t 1/2) during base-catalyzed hydrolysis; format: ADME
This listing pairs compounds with measured half-life.

{"compound": "[N-]=[N+]=N[C@H]1C[C@H](n2ccc(=O)[nH]c2=O)O[C@@H]1COP(=O)(OC[C@H]1O[C@@H](n2ccc(=O)[nH]c2=O)C[C@@H]1N=[N+]=[N-])Oc1ccccc1", "unit descriptor": "min", "half-life": 1020}
{"compound": "[N-]=[N+]=N[C@H]1C[C@H](n2ccc(=O)[nH]c2=O)O[C@@H]1COP(=O)(OC[C@H]1O[C@@H](n2ccc(=O)[nH]c2=O)C[C@@H]1N=[N+]=[N-])Oc1ccccc1C(=O)Oc1ccccc1", "unit descriptor": "min", "half-life": 66}
{"compound": "COC(=O)c1ccccc1OP(=O)(OC[C@H]1O[C@@H](n2ccc(=O)[nH]c2=O)C[C@@H]1N=[N+]=[N-])OC[C@H]1O[C@@H](n2ccc(=O)[nH]c2=O)C[C@@H]1N=[N+]=[N-]", "unit descriptor": "min", "half-life": 66}
{"compound": "O=C(OC1O[C@H](CO)[C@@H](O)[C@H](O)[C@H]1O)c1ccccc1OP(=O)(OC[C@@H]1CC[C@H](n2ccc(=O)[nH]c2=O)O1)OC[C@@H]1CC[C@H](n2ccc(=O)[nH]c2=O)O1 (some centres undefined)", "unit descriptor": "min", "half-life": 1020}
